target-under-test: Bromodomain-containing protein 4 (Homo sapiens, UniProt O60885)
method-summary: Inhibition of BRD4 (unknown origin) BD1 domain incubated for 18 hrs
measure: IC50 (nM)
Hi! Could you send only the number? It should be in nM, unit omitted.

Enquiry: Give IC50 for the following compound: "COc1nnc2ccc(N3CCC(c4ccc(OCCN5CCN(C)C(=O)[C@H]5C)cc4)CC3)nn12"
Return: 1.6
